FYI, the data here is from paper PMC6338552.

target: His6-JNK2α1 (UniProt P45984-2 1-382); assay: fluorescence polarisation
TMR = 6-carboxytetramethylrhodamine
ENDPOINT_LABEL: pKd
Recall that pKd is obtained by taking minus log10 of the concentration measured in molar.

Ask: Recorded pKd for {TMR}-RPKRPTTLNLF-OH [TMR-JIPtide] , please?
Reply: 5.34
